Tested on: zebrafish larvae
PROTOCOL_TEXT: Zebrafish models of stress and anxiety, overall verdict (Light/Dark Stress Response and thigmotaxis)
Type: in vivo
CONDITION_LABEL: vehicle 1% MeOH
MEASURE_NAME: Therapeutic Potential

Here's what some known entries look like.
> print(dat)
                                   molecule           measure.name           meas.value
1  COc1c(O)cc(O)c2c(=O)cc(-c3ccccc3)oc12 [Wogonin (hydrate), wogonin]  Therapeutic Potential                   No
2  COc1cc(/C=C/C(=O)CC(=O)/C=C/c2ccc(O)c(OC)c2)ccc1O  Therapeutic Potential  No, sedative effect
3                          C=CCc1ccc(OC)cc1  Therapeutic Potential                   No
4  COC1=CC(=O)O[C@@H](/C=C/c2ccc3c(c2)OCO3)C1 [R-(+)-methysticin]  Therapeutic Potential  No, sedative effect
5     C=C1CC/C=C(\C)CC[C@@H]2[C@@H]1CC2(C)C  Therapeutic Potential                   No
6         COc1ccc(/C=C/c2cc(OC)cc(=O)o2)cc1  Therapeutic Potential                  Yes

Next item in the queue.
Ask | Need Therapeutic Potential, item COC1=CC(=O)O[C@@H](CCc2ccccc2)C1 [(S)-(+)-7,8-dihydrokavain]
Reply | No
